Ref: paper PMC8995400

Test: Plasma pharmacokinetics after IV injection in mice
Type: in vivo, BALB/CJ mice
Details: BALB/CJ, mouse, iv, 113 ug, T1/2, Non compartment model, mice
Property label: half-life (h)
# number only, unit h dropped from output

Provide one value: measured half-life of COc1cccc(-c2cc(=O)c3ccccc3o2)c1N
5.25
